# TESTED TARGET: mouse TRPM3a2 (mTRPM3) ion channel (Mus musculus, UniProt J9SQF3)
# Construct: expressed in transfected cells; host or cells: flip-in HEK293
# Sequence (J9SQF3 1-1709 isoform J9SQF3-12): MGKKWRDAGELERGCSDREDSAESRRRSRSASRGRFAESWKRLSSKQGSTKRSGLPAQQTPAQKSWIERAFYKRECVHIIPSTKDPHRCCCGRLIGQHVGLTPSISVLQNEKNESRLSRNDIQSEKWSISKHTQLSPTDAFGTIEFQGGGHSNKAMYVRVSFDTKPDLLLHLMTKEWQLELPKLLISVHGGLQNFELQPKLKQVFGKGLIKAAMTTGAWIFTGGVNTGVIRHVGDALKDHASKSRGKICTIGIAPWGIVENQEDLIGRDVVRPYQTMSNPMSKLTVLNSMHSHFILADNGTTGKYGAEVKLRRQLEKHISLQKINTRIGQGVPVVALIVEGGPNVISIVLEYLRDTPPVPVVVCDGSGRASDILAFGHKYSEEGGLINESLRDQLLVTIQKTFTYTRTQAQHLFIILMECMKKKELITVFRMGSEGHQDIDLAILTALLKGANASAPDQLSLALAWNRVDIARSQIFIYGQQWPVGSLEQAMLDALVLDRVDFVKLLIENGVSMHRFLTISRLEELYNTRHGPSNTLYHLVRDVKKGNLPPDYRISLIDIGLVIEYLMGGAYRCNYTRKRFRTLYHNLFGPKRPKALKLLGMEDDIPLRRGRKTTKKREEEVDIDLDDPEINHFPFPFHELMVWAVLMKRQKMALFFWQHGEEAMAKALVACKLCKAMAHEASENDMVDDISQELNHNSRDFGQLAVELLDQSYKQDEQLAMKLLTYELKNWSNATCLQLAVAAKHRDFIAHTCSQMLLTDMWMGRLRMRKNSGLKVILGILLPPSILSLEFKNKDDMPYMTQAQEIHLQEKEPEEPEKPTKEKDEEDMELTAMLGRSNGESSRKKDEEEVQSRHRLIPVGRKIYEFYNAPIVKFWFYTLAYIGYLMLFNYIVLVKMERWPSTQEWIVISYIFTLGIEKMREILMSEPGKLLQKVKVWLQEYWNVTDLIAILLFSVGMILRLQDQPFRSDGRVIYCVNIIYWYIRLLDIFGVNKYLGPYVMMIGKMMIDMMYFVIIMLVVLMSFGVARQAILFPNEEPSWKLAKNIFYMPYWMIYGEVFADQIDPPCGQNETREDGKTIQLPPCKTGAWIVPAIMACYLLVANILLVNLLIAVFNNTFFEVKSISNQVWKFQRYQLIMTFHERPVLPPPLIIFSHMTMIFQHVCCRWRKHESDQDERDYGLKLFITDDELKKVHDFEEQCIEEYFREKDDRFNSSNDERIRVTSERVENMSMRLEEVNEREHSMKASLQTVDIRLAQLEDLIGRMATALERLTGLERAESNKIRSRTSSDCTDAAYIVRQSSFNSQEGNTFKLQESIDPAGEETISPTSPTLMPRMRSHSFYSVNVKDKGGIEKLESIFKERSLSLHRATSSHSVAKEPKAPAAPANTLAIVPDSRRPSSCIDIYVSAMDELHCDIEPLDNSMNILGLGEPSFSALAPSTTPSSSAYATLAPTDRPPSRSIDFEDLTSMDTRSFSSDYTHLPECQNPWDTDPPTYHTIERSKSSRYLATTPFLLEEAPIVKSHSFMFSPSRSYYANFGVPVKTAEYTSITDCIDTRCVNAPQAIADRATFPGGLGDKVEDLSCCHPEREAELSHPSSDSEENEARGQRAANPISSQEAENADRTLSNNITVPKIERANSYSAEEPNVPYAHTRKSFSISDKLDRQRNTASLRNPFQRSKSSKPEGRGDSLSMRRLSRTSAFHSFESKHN
# PROTOCOL DESCRIPTION: TRPM3 ion channel driven Ca2+ uptake, Fluo-4 AM assay (PS-stimulated, overexpressing flip-in HEK293 cells)
# Format: cell-based
# STUDY CONDITIONS: PS (50 μM) stimulated, cpds. 400-499
pIC50: −log10 of the molar value.
TEST READOUT: pIC50

# get_value(readout='pIC50', item= Cc1oc2ccc(OCc3cccnc3O)cc2c1C(=O)NC(C)C(N)=O (single isomer, unassigned) [436 - En 1] ) ≥ 6.00

Repeat with Cc1oc2ccc(OCc3nccn3C)cc2c1C(=O)NC(CO)C(N)=O (single isomer, unassigned) [451 - En 2] 4.70 to 6.00

What do you have for Cc1oc2ccc(OCc3nccn3C)cc2c1C(=O)NC1CCN(CCO)C1=O (single isomer, unassigned) [403 - En 1] ? 4.70 to 6.00

Next compound: Cc1oc2ccc(OCc3ccnn3C)cc2c1C(=O)NC(C)C(N)=O (single isomer, unassigned) [433 - En 1] ≥ 6.00

And the next one, Cc1ncsc1COc1ccc2oc(C)c(C(=O)NC(CO)CN3CCOCC3)c2c1 (single isomer, unassigned) [488 - En 2] ? 4.70 to 6.00

Likewise for Cc1oc2ccc(OCc3nccn3C)cc2c1C(=O)NC(CO)C(N)=O (single isomer, unassigned) [451 - En 1] ? ≥ 6.00

Next: Cc1ccc(COc2ccc3oc(C)c(C(=O)NC(C)(CO)C(N)=O)c3c2)cn1 (single isomer, unassigned) [464 - En 1] ≥ 6.00

Same read-out for Cc1oc2ccc(OCc3nccn3C)cc2c1C(=O)NC1CCN(CCO)C1=O (single isomer, unassigned) [403 - En 2] ? ≤ 4.70

# repeat for Cc1ncc(COc2ccc3oc(C)c(C(=O)NC(CN(C)C4CC4)C(N)=O)c3c2)s1 (single isomer, unassigned) [445 - En 1] ≥ 6.00

Check Cc1ncsc1COc1ccc2oc(C)c(C(=O)NC(CN(C)C3CC3)C(N)=O)c2c1 (single isomer, unassigned) [446 - En 2] too. 4.70 to 6.00

What do you have for Cc1oc2ccc(OCc3cccnc3O)cc2c1C(=O)NC(CO)C(N)=O (single isomer, unassigned) [459 - En 1] ? ≥ 6.00

Likewise for Cc1ncsc1COc1ccc2oc(C)c(C(=O)NC(CN(C)C3CC3)C(N)=O)c2c1 (single isomer, unassigned) [446 - En 1] ? ≥ 6.00

Again, but for Cc1ncc(COc2ccc3oc(C)c(C(=O)NC(C)C(N)=O)c3c2)s1 (centres unmarked) [434 - En 2] ≥ 6.00

What do you get for Cc1ncsc1COc1ccc2oc(C)c(C(=O)NC(CO)CN3CCOCC3)c2c1 (single isomer, unassigned) [488 - En 1] ? ≥ 6.00

Now try Cc1oc2ccc(OCc3ccccn3)cc2c1C(=O)NC1CCN(CCO)C1=O (single isomer, unassigned) [406 - En 1] . ≥ 6.00

Now try Cc1oc2ccc(OCc3ccccn3)cc2c1C(=O)NC(C)C(N)=O (centres unmarked) [435 - En 2] . ≥ 6.00

Entry Cc1oc2ccc(OCc3cccnc3O)cc2c1C(=O)NC1CCN(CCO)C1=O (single isomer, unassigned) [408 - En 1] please ≥ 6.00
